system: unrelated Fc-fused recombinant protein
assay explanation: ELISA, negative control Fc protein
Recorded ELISA Fc Control (RLU) values for a group of binders are listed next.
// return numeric value only (unit: RLU, not printed)

The following binders have reported results that may help.
ISOP193ER9P1B5 (designed binder, not shown: small tags and cut ends) LPAPKNLVVSRVTEDSARLSWTAPDAAFDSFAIQYQEYVAHGEAIVLTVPGSERSYDLTGLKPGTEYHVRISGVKGGGVSWPLSAIVTT : 1200
ISOP193GR9P1E10 (designed binder, not shown: small tags and cut ends) LPAPKNLVVSRVTEDSARLSWTAPDAAFDSFAISYTESIRQGEAIWLWVPGSERSYDLTGLKPGTEYEVTIGGVKGGIRSYPLWAWFTT : 1360
ISOP193BR9P1H6 (designed binder, not shown: small tags and cut ends) LPAPKNLVVSRVTEDSARLSWPDESRPVRFDSFLIQYQESEKVGEAIVLTVPGSERSYDLTGLKPGTEYTVSIYGVVGQWKYATADSNPLSAIFTT : 8320
ISOP193ER9P1E1 (designed binder, not shown: small tags and cut ends) LPAPKNLVVSRVTEDSARLSWTAPDAAFDSFDIYYFEHPVGGEAIVLTVPGSERSYDLTGLKPGTEYLVTIYGVKGGSVSIPLSAIFTT : 1200
ISOP193FR9P1G11 (designed binder, not shown: small tags and cut ends) LPAPKNLVVSRVTEDSARLSWTAPDAAFDSFTIYYFENENGGEAIVLTVPGSERSYDLTGLKPGTEYLVTIYGVKGCDWSDPLSAIFTT : 60600
ISOP193BR9P1G9 (designed binder, not shown: small tags and cut ends) LPAPKNLVVSRVTEDSARLSWKQVTVAPEFDSFLIQYQESEKVGEAIVLTVPGSERSYDLTGLKPGTEYTVSIYGVKFPYYYATADSNPLSAIFTT : 1200
ISOP193HR9P1A10 (designed binder, not shown: small tags and cut ends) LPAPKNLVVSRVTEDSARLSWTAPDAAFDSFDIYYLEPWGGGEAIVLTVPGSERSYDLTGLKPGTEYWVTIYGVKVCLGSNPLSAIFTT : 5680
ISOP193ER9P1C8 (designed binder, not shown: small tags and cut ends) LPAPKNLVVSRVTEDSARLSWTAPDAAFDSFDIYYFEHPVGGEAIVLTVPGSERSYDLTGLKPGTEYLVTIYGVKGGTYSLPLSAIFTT : 1040
ISOP193AR9P1H8 (designed binder, not shown: small tags and cut ends) LPAPKNLVVSRVTEDSARLSWTNEQITKYGFDSFLIQYQESEKVGEAIVLTVPGSERSYDLTGLKPGTEYTVSIYGVGRFYTVFDSNPLSAIFTT : 3040
ISOP193ER9P1F9 (designed binder, not shown: small tags and cut ends) LPAPKNLVVSRVTEDSARLSWTAPDAAFDSFHIYYGEHYNLGEAIVLTVPGSERSYDLTGLKPGTEYLVTIYGVKGGFWSTPLSAIFTT : 1840

Record request: ELISA Fc Control (RLU) value, item ISOP193ER9P1E4 (designed binder, not shown: small tags and cut ends) LPAPKNLVVSRVTEDSARLSWTAPDAAFDSFAIIYQEYVKSGEAIVLTVPGSERSYDLTGLKPGTEYHVRIGGVKGGLLSLPLSAIFTT
1680

# get_value(readout='ELISA Fc Control (RLU)', item= ISOP193ER9P1B4 (designed binder, not shown: small tags and cut ends) LPAPKNLVVSHVTEDSARLSWTAPDAAFDSFDIYYFEHPVGGEAIVLTVPGSERSYDLTGLKPGTEYLVTIYGVKGGYLSMPLSAIFTT )
1600

Could you share which ELISA Fc Control (RLU) value was measured for ISOP193AR9P1A6 (designed binder, not shown: small tags and cut ends) LPAPKNLVVSRVTEDSARLSWKFGEVAFDSFLIQYQESEKVGEAIVLTVPGSERSYDLTGLKPGTEYTVSIYGVGRHYTVYDSNPLSAIFTT ?
960

If you can, please state the reported ELISA Fc Control (RLU) value of ISOP193HR9P1F10 (designed binder, not shown: small tags and cut ends) LPAPKNLVVSRVTEDSARLSWTAPDAAFDSFDIYYYELRLGGEAIVLTVPGSERSYDLTGLKPGTEYLVTIYGVKGGYYSGPLSAIFTT .
1280

Give its ELISA Fc Control (RLU) value. Item: ISOP193HR9P1A5 (designed binder, not shown: small tags and cut ends) LPAPKNLVVSRVTEDSARLSWTAPDAAFDSFDIYYYELRLGGEAIVLTVPGSERSYDLTGLKPGTEYLVTIYGVKGCGYSAPLSAIVTT
6080

What value of ELISA Fc Control (RLU) has been reported for the following binder? ISOP193HR9P1A11 (designed binder, not shown: small tags and cut ends) LPAPKNLVVSRVTEDSARLSWTAPDAAFDSFEIYYLEGGRGEAIVLTVPGSERSYDLTGLKPGTEYLVTIYGVKCGWASNPLSAIFTT
28300

Endpoint output: ELISA Fc Control (RLU) of ISOP193AR9P1B4 (designed binder, not shown: small tags and cut ends) LPAPKNLVVSRVTEDSARLSWRDLQYHTFDSFLIQYQESEKVGEAIVLTVPGSERSYDLTGLKPGTEYTVSIYGVGRHYTVYDSNPLSAIFTT . Value?
960

Which ELISA Fc Control (RLU) is listed for ISOP193BR9P1G11 (designed binder, not shown: small tags and cut ends) LPAPKNLVVSRVTEDSARLSWAGHYRKIRNFDSFLIQYQESEKVGEAIVLTVPGSERSYDLTGLKPGTEYTVSIYGVKFPYYYATADSNPLSAIFTT ?
56900
